The origin of these recorded values is patent US6844345B2.

For each record, write down the corresponding pKi.
target: 5-HT2A receptor (Homo sapiens)
One number for each entry, as −log10 of the molar value.

CCc1cccc2cc3n(c12)[C@H](C)CNC3 [Example 1] :: 6.69

State its pKi on 5-HT2A receptor (Homo sapiens): C[C@@H]1CNCc2cc3ccc(Cl)cc3n21 [Example 20]
7.64

----------
For each record, write down the corresponding EC50.
molecular target: 5-HT2A receptor (Homo sapiens, UniProt P28223); assay: Functional activity, FLIPR calcium assay in CHO cells expressing human 5-HT2A; type: cell-based; parameters: expressed in transfected cells; host or cells: CHO cells; details: FLIPR, CHO cells, Fluo-3-AM; read-out: h5-HT2A EC50
Sequence (P28223 whole entry): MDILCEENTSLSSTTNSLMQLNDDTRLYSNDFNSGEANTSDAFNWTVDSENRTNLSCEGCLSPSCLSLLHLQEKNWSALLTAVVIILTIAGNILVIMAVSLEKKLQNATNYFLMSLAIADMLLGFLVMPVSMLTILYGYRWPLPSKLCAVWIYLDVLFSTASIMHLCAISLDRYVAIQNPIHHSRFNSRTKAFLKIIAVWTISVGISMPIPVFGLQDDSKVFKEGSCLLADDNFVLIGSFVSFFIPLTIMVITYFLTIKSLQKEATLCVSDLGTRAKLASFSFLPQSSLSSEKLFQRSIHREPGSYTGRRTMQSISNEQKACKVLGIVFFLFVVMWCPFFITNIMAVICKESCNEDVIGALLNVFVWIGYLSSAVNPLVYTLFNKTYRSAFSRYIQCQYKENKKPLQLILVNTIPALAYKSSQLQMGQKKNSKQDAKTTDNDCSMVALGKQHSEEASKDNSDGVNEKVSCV
Give bare numbers, in µM.

C[C@@H]1CNCc2cc3ccc(Cl)cc3n21 :: 0.163

Can you give me EC50 for all of these, one by one?
1. CCc1cccc2cc3n(c12)[C@H](C)CNC3
2. Cc1c2n(c3c(C)c(Cl)ccc13)[C@H](C)CNC2.O=C(O)C(=O)O [Example 14, oxalate]

1: 0.64; 2: 0.536

----------
target: 5-HT2A receptor (Homo sapiens); experiment: Functional activity, FLIPR calcium assay in CHO cells expressing human 5-HT2A; format: cell-based; design: expressed in transfected cells; host or cells: CHO cells
MEASUREMENT_KIND: EC50 (µM)
One number for each entry, in µM.

Please look up its EC50: Cc1ccc(C)c2c1cc1n2[C@H](C)CNC1 [Example 21]
0.121

----------
molecular target: 5-HT2A receptor (Homo sapiens); assay: Functional activity, FLIPR calcium assay in CHO cells expressing human 5-HT2A; format: cell-based; set-up: expressed in transfected cells; host or cells: CHO cells; details: maximum fluorescent signal relative to 10 μM 5-HT (defined as 100%)
MEASUREMENT_KIND: h5-HT2A Relative Efficacy (%)
Answers are plain numbers, in %.

Cc1ccc(C)c2c1cc1n2[C@H](C)CNC1 [Example 21] :: 76

Can you give me h5-HT2A Relative Efficacy for all of these, one by one?
1. Cc1c2n(c3c(C)c(Cl)ccc13)[C@H](C)CNC2.O=C(O)C(=O)O [Example 14]
2. CCc1cccc2cc3n(c12)[C@H](C)CNC3 [Example 1]

1. 34
2. 23

Please look up its h5-HT2A Relative Efficacy: C[C@@H]1CNCc2cc3ccc(Cl)cc3n21 [Example 20]
49

----------
target: 5-HT2C receptor (Homo sapiens, UniProt P28335); experiment: Functional activity, FLIPR calcium assay in CHO cells expressing human 5-HT2C; type: cell-based; parameters: expressed in transfected cells; host or cells: CHO cells; conditions: maximum fluorescent signal relative to 10 μM 5-HT (defined as 100%)
Sequence (P28335 33-458): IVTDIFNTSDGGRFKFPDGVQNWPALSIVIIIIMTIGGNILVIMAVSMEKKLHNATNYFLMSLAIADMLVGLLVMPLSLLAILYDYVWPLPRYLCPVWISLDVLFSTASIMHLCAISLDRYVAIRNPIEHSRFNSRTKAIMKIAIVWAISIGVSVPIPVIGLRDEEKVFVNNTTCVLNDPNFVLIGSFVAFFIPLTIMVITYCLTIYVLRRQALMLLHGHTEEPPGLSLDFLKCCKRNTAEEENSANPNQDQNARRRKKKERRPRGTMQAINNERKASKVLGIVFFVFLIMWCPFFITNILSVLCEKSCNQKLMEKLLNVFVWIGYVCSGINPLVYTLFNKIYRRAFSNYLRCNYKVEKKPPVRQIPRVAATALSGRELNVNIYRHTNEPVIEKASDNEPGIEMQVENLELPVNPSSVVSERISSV
MEASUREMENT_KIND: h5-HT2c Relative Efficacy (%)
Numbers only, in %.

Past entries and their recorded results:
CCc1cccc2cc3n(c12)[C@H](C)CNC3 :: 83
Cc1ccc(C)c2c1cc1n2[C@H](C)CNC1 :: 80
C[C@@H]1CNCc2cc3ccc(Cl)cc3n21 :: 91

Please look at the following compound next.
State its h5-HT2c Relative Efficacy on 5-HT2C receptor (Homo sapiens, UniProt P28335): Cc1c2n(c3c(C)c(Cl)ccc13)[C@H](C)CNC2.O=C(O)C(=O)O
88

----------
For each record, write down the corresponding melting point.

Past entries and their recorded results:
Cc1cc2c(cc1Br)cc1n2[C@H](C)CNC1.Cl :: 241 °C (dec.)
C[C@@H]1CNCc2cc3cc(Br)c(F)cc3n21.Cl :: 232 °C
C[C@@H]1CNCc2cc3ccc(C(F)(F)F)cc3n21 :: 123 to 125 °C
C[C@@H]1CNCc2cc3c(Cl)cccc3n21.Cl :: 234 to 237 °C (dec.)

Can you give me melting point for all of these, one by one?
1. C[C@@H]1CNCc2cc3cccc(OC(F)(F)F)c3n21
2. Cc1ccc2cc3n(c2c1)[C@H](C)CNC3.Cl

1: 58 to 60 °C; 2: 245 °C (dec.)

----------
target: 5-HT2C receptor (Homo sapiens, UniProt P28335); assay: Binding to 5-HT2C receptor, [3H]-5-HT radioligand, Method (a); set-up: expressed in transfected cells; host or cells: CHO cell line; details: CHO cell line, read-out: Ki (2C)
MEASUREMENT_KIND: Ki (nM)
Numbers only, in nM.

C[C@@H]1CNCc2cc3ccc(Cl)cc3n21 [Example 20] :: 2.8

Please look at the following compound next.
Please look up its Ki: CCc1cccc2cc3n(c12)[C@H](C)CNC3 [Example 1]
5
